# measurement-target: Replicase polyprotein 1ab (Severe acute respiratory syndrome-related coronavirus, UniProt P0C6X7)
# experimental-details: Inhibition of SARS coronavirus isolate Tor2 3C-like protease by FRET assay
outcome-measure: IC50
Please provide the amount together with its unit, number first.

q: Consider the compound `O=C(Oc1cccnc1)c1cccs1` and give its recorded IC50.
a: 0.5 µM

----------
# measurement-target: Genome polyprotein (rhinovirus A16)
# experimental-details: Inhibition of HRV-16 protease 3C expressed in Escherichia coli BL21(DE3) at 1 uM by FRET assay
Active and inactive are the calls of the source. No cut-off for these calls is given here.
outcome-measure: inhibition

Please review the entries below; each comes with its answer.
{"smiles-string": "CCOc1nc(-c2ccccc2)oc1C(=O)Oc1cncc(Cl)c1", "inhibition": "inactive"}
{"smiles-string": "CCOc1nc(-c2ccc3ccccc3c2)oc1C(=O)Oc1cncc(Cl)c1", "inhibition": "34%"}
{"smiles-string": "CCOc1nc(/C=C/c2ccccc2)oc1C(=O)Oc1cncc(Cl)c1", "inhibition": "87%"}
{"smiles-string": "Cc1cc(C(=O)Oc2cncc(Cl)c2)no1", "inhibition": "inactive"}
{"smiles-string": "Nc1ncccc1OC(=O)c1ccco1", "inhibition": "24%"}

q: Consider the molecule `O=C(Oc1cccnc1O)c1ccco1` and give its recorded inhibition.
a: inactive

q: Consider the molecule `O=C(Oc1cncc(Cl)c1)c1ccc(-c2ccccc2)o1` and give its recorded inhibition.
a: 80%
